Cited source: patent US20110092544A1

Here the recorded Test E rating (% disease control) is given for each entry.
Test system: Alternaria solani
ASSAY COMMENT: Test E: tomato early blight, preventive spray on tomato seedlings, visual disease rating
Format: in vivo
RUN PARAMETERS: 40 ppm (compound number followed by *)
Record the value in %, omitting the unit from your answer.

COMPOUND	QUANTITATIVE RESULT
COc1cc(OC)cc(-c2c(-c3ccccc3)c(C)[n+]([O-])c(C)c2-c2ccccc2F)c1	76
COc1cc(OC)cc(-c2c(C(C)=NO)cnc(C)c2-c2c(F)cc(F)cc2F)c1 (single isomer, unassigned) [Compound 117]	99
COc1cc(OC)cc(-c2c(C(C)C)cnc(C)c2-c2c(F)cc(OC)cc2F)c1	100
COc1cc(OC)c(Cl)c(-c2c(CCl)cnc(C)c2-c2c(F)cc(F)cc2F)c1	96
COc1cc(OC)cc(-c2c(C(C)C)cnc(C)c2-c2c(F)cc(F)cc2F)c1	99
COc1cc(OC)cc(-c2c(C(C)O)cnc(C)c2-c2c(F)ccc(OC)c2F)c1 (stereo not drawn)	99
COc1cc(OC)cc(-c2c(C(C)CO)cnc(C)c2-c2c(F)cccc2F)c1 (stereo not drawn)	98
COc1cc(OC)cc(-c2c(-c3ccc(F)cc3)cnc(C)c2-c2ccc(F)cc2)c1	0
CCC(O)c1cnc(C)c(-c2c(F)ccc(OC)c2F)c1-c1cc(OC)cc(OC)c1 (stereo not drawn)	99
C=C(C)c1cnc(C)c(-c2c(F)ccc(F)c2F)c1-c1cc(OC)cc(OC)c1	99

**Query** I am curious: what Test E rating (% disease control) value has been reported for COc1cc(OC)cc(-c2c(C=O)cnc(C)c2-c2c(F)cc(F)cc2F)c1 ?
**Result** 9

**Query** Similarly, CCOC(=O)c1cnc(C)c(-c2ccccc2)c1-c1cc(OC)cc(OC)c1Cl ?
**Result** 0

**Query** Same for COc1cc(OC)cc(-c2c(-c3ccccc3)cnc(C)c2-c2c(F)cccc2F)c1
**Result** 0

**Query** Then what about the compound COc1cc(OC)c(Cl)c(-c2c(C(C)=O)cnc(C)c2-c2c(F)cc(F)cc2F)c1 ?
**Result** 99

**Query** Query COc1cc(OC)cc(-c2c(-c3ccccc3)cnc(C)c2-c2ccccc2F)c1 next
**Result** 31
